tested_on: D(2) dopamine receptor (Homo sapiens, UniProt P14416)
Sequence (P14416 whole entry): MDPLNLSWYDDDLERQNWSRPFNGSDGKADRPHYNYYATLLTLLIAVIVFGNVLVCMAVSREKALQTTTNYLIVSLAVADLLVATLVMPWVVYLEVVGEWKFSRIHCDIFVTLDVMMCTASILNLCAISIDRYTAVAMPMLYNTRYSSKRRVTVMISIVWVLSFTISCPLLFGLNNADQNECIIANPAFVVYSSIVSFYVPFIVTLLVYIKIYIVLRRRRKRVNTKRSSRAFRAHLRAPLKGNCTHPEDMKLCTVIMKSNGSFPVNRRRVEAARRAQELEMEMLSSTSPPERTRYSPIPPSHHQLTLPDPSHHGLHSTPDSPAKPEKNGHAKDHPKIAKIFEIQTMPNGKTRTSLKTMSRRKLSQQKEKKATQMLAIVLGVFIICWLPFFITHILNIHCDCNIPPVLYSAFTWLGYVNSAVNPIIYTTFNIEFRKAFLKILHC
assay_explanation: Displacement of [3H]-N-methylspiperone from human dopamine D2 receptor expressed in HEK293 cell membranes incubated for 60 mins by microbeta scintillation counting analysis
Parameters: species or system Membrane
outcome_measure: pKi
Answers are plain numbers, as −log10 of the molar value.

INSERT INTO assay_data (compound, recorded_measurement) VALUES
  ('CCc1cccc(N2CCN(CC(O)CCNCCC(C(=O)N(C)C)(c3ccccc3)c3ccccc3)CC2)c1Cl (stereo unspecified)', 6.34),
  ('CCC(=O)C(CCN(C)C)(c1ccccc1)c1ccccc1 [NORMETHADONE]', 4.46);

Below are 2 compounds. Give each one its pKi.
1. O=C(NCCCCN1CC[C@]2(c3cccc(O)c3)CCC[C@H]1[C@H]2O)c1cc2ccccc2[nH]1
2. O=C(NCCCCN1CC[C@]2(c3cccc(O)c3)CCC[C@H]1[C@@H]2O)c1cc2ccccc2[nH]1

1: 5.88; 2: 5.34

Look up and report pKi, with D(2) dopamine receptor (Homo sapiens, UniProt P14416) as system, for CCOC(=O)/C=C1\[C@@H]2CCC[C@@]1(c1cccc(O)c1)CCN2CCc1ccccc1
6.20
